Test system: LCLC-97TM1
Experiment Notes: relative viability (nuclei count vs DMSO), 5 days (fraction); higher = more cells survive
Conditions: first compound 500 µM
Result Type: relative viability
Answers are plain numbers.

# count of solved cases: 2
O=C(O)CCCCC(CCSCc1ccccc1)SCc1ccccc1 (stereo not drawn) [CPI-613] + N=C(N)NC(=N)NCCc1ccccc1 [Phenformin] (partner 250 µM)	0.0437
O=C(O)CCCCC(CCSCc1ccccc1)SCc1ccccc1 (stereo not drawn) [CPI-613] + C[C@@H](Oc1cc(-c2cnn(C3CCNCC3)c2)cnc1N)c1c(Cl)ccc(F)c1Cl [Crizotinib] (partner 1 µM)	0.0433

Provide reported relative viability for each item, in the same order as listed.
1. O=C(O)CCCCC(CCSCc1ccccc1)SCc1ccccc1 (stereo not drawn) [CPI-613] + O=C(c1cc(Cc2n[nH]c(=O)c3ccccc23)ccc1F)N1CCN(C(=O)C2CC2)CC1 [Olaparib] (partner 8 µM)
2. O=C(O)CCCCC(CCSCc1ccccc1)SCc1ccccc1 (stereo not drawn) [CPI-613] + CC(C)C[C@H](NC(=O)[C@H](Cc1ccccc1)NC(=O)c1cnccn1)B(O)O [Bortezomib] (partner 0.002 µM)
3. O=C(O)CCCCC(CCSCc1ccccc1)SCc1ccccc1 (stereo not drawn) [CPI-613] + CC(=O)c1c(C)c2cnc(Nc3ccc(N4CCNCC4)cn3)nc2n(C2CCCC2)c1=O [Palbociclib] (partner 0.5 µM)

Result:
1: 0.191; 2: 0.819; 3: 0.0897

Provide reported relative viability for each item, in the same order as listed.
1. O=C(O)CCCCC(CCSCc1ccccc1)SCc1ccccc1 (stereo not drawn) [CPI-613] + Nc1ncn([C@H]2C[C@H](O)[C@@H](CO)O2)c(=O)n1 [Decitabine] (partner 2 µM)
2. O=C(O)CCCCC(CCSCc1ccccc1)SCc1ccccc1 (stereo not drawn) [CPI-613] + C[C@]1(O)C[C@@H](c2nc(-c3ccc4ccc(-c5ccccc5)nc4c3)c3c(N)nccn32)C1 [Linsitinib] (partner 1 µM)
3. O=C(O)CCCCC(CCSCc1ccccc1)SCc1ccccc1 (stereo not drawn) [CPI-613] + COc1cc2c(Oc3ccc(NC(=O)C4(C(=O)Nc5ccc(F)cc5)CC4)cc3F)ccnc2cc1OCCCN1CCOCC1 [Foretinib] (partner 0.25 µM)

Result:
1. 0.051
2. 0.0574
3. 0.0466
